System: TGF-β-stimulated SMAD3 phosphorylation in BEAS-2B cells
assay text: Cellular ALK5 potency assay, inhibition of TGF-β stimulated pSMAD3 formation in BEAS-2B cells
Format: cell-based
cond: Homo sapiens, pSMAD3, TGF-β 10 ng/mL, read-out: BEAS2B pIC50 (converted)
recorded metric: IC50

// below: answered molecules
1. CNC1CCN(S(=O)(=O)c2cccc(Nc3nccc(Nc4ccnc(-c5cccc(C)n5)n4)n3)c2)CC1 [Compound 176]; 25.1 to 158 nM
2. Cc1cccc(-c2nccc(Nc3ccnc(Nc4ccc5c(c4)CNCC5)n3)n2)n1 [Compound 175]; 25.1 to 158 nM
3. Cc1cccc(-c2nccc(Nc3ccnc(Nc4ccc(C(=O)OCCN5CCN6CCCC6C5)nc4)n3)n2)n1 (stereo not drawn) [Compound 613]; 25.1 to 158 nM

# input I'm curious: which IC50 was measured for Cc1cccc(-c2nccc(Nc3ccnc(Nc4ccc(NC(=O)C5CCN(CCN(C)C)CC5)cc4)n3)n2)n1 [Compound 269] tested on TGF-β-stimulated SMAD3 phosphorylation in BEAS-2B cells?
# output 200 to 1260 nM

# input I'm curious: which IC50 was measured for Cc1cccc(-c2nccc(Nc3ccnc(Nc4ccc(CN5CCCC(C(=O)OC6CCNCC6)C5)cc4)n3)n2)n1 (stereo not drawn) [Compound 383] tested on TGF-β-stimulated SMAD3 phosphorylation in BEAS-2B cells?
# output 25.1 to 158 nM

# input I'm curious: which IC50 was measured for CC[C@@H](C)OC(=O)CC1CNCCN1c1ccc(Nc2nccc(Nc3ccnc(-c4cccc(C)n4)n3)n2)cc1 (stereo partly drawn) [Compound 9] tested on TGF-β-stimulated SMAD3 phosphorylation in BEAS-2B cells?
# output 25.1 to 158 nM

# input I'm curious: which IC50 was measured for Cc1cccc(-c2nccc(Nc3ccnc(Nc4ccc(NC(=O)C5(O)CCNC5)cc4)n3)n2)n1 (stereo not drawn) [Compound 58] tested on TGF-β-stimulated SMAD3 phosphorylation in BEAS-2B cells?
# output ≤ 20 nM

# input I'm curious: which IC50 was measured for Cc1cccc(-c2nccc(Nc3ccnc(Nc4ccc(Cl)c(CN5CCN(C)CC5)c4)n3)n2)n1 [Compound 238] tested on TGF-β-stimulated SMAD3 phosphorylation in BEAS-2B cells?
# output 25.1 to 158 nM

# input I'm curious: which IC50 was measured for Cc1cccc(-c2nccc(Nc3ccnc(Nc4ccc(NS(=O)(=O)N(C)C5CCNCC5)cc4)n3)n2)n1 [Compound 441] tested on TGF-β-stimulated SMAD3 phosphorylation in BEAS-2B cells?
# output 25.1 to 158 nM

# input I'm curious: which IC50 was measured for Cc1cccc(-c2nc(Nc3ccnc(Nc4ccc(NCC5CNC5)cc4)n3)c3cccn3n2)n1 [Compound 1016] tested on TGF-β-stimulated SMAD3 phosphorylation in BEAS-2B cells?
# output 25.1 to 158 nM

# input I'm curious: which IC50 was measured for Cc1cccc(-c2nccc(Nc3ccnc(Nc4ccc(N5CCN(C6CCOC6=O)CC5)cc4)n3)n2)n1 (stereo not drawn) [Compound 365] tested on TGF-β-stimulated SMAD3 phosphorylation in BEAS-2B cells?
# output ≤ 20 nM

* * *

Recorded pKi by entry
measurement target: recombinant human ALK5 (TGF-βR1) protein (Homo sapiens)
assay text: Biochemical ALK5 (TGF-βR1) assay to measure pKi (LANCE Ultra ULight kinase assay)
cond: apparent pKi, converted from pIC50 by Cheng-Prusoff
Experimental: The assays were performed in a 384-well plate (24 columns×16 wells/rows). An Echo®550 Liquid Handler (Labcyte) was used to prepare various intermediate concentrations of compounds of the present disclosure in 100% DMSO. […] For dose-response analyses, percent inhibition versus compound concentrations were plotted, and pIC50 values were determined from a 4-parameter robust fit model with GraphPad Prism V5 Software (GraphPad Software, Inc., La Jolla, CA). […]
pKi: −log10 of the molar value.

1) COC(=O)[C@@H]1CN(Cc2ccc(Nc3nccc(Nc4ccnc(-c5cccc(C)n5)n4)n3)cc2)CCN1; 9.50 to 10.40

# input What pKi value was documented for this compound, Cc1cccc(-c2nccc(Nc3ccnc(Nc4cncc(CN5CC(C(=O)O)C5)c4)n3)n2)n1 ?
# output 9.50 to 10.40

# input What pKi value was documented for this compound, Cc1cccc(-c2nccc(Nc3ccnc(Nc4ccc(N5CCN(CCN)CC5)cc4)n3)n2)n1 ?
# output 9.50 to 10.40

# input What pKi value was documented for this compound, Cc1cccc(-c2nccc(Nc3ccnc(Nc4ccc(CC(=O)O)cc4)n3)n2)n1 ?
# output 8.50 to 9.40

# input What pKi value was documented for this compound, Cc1cccc(-c2nccc(Nc3ccnc(Nc4cccc(NC(=O)NC5CNC5)c4)n3)n2)n1 ?
# output 9.50 to 10.40

# input What pKi value was documented for this compound, Cc1cccc(-c2nc(Nc3ccnc(Nc4nc(C(=O)O)cs4)n3)c3cccn3n2)n1 ?
# output 8.50 to 9.40

# input What pKi value was documented for this compound, Cc1cccc(-c2nccc(Nc3ccnc(Nc4ccc(N5CC(CN)C5)cc4)n3)n2)n1 ?
# output 9.50 to 10.40

* * *

Test system: TGF-β-stimulated SMAD3 phosphorylation in BEAS-2B cells
assay text: Cellular ALK5 potency assay, inhibition of TGF-β stimulated pSMAD3 formation in BEAS-2B cells
Format: cell-based
cond: Homo sapiens, pSMAD3, TGF-β 10 ng/mL, read-out: BEAS2B pIC50 (converted)
recorded metric: IC50

// below: answered compounds
1. Cc1cccc(-c2cccc(Nc3ccnc(Nc4ccc(N5CCOCC5)cc4)n3)n2)n1 [Compound 1000]; 25.1 to 158 nM
2. Cc1cccc(-c2nc(Nc3ccnc(Nc4ccc(N)cc4)n3)c3cccn3n2)n1 [Compound 1015]; 25.1 to 158 nM
3. Cc1cccc(-c2nccc(Nc3ccnc(Nc4ccc(Cl)c(CN5C6CCC5CNC6)c4)n3)n2)n1 [Compound 487]; 25.1 to 158 nM
4. COc1ccc(Nc2nccc(Nc3ccnc(-c4cccc(C)n4)n3)n2)cc1NC(=O)C1CCNCC1 [Compound 6]; 25.1 to 158 nM
5. Cc1cccc(-c2nccc(Nc3ccnc(Nc4cc(C(=O)O[C@@H]5CCN(C)C5)cs4)n3)n2)n1 [Compound 522]; 25.1 to 158 nM
6. Cc1cccc(-c2nccc(Nc3ccnc(Nc4ccc(C5=CCC(N)CC5)cc4)n3)n2)n1 (stereo not drawn) [Compound 151]; 25.1 to 158 nM

# input What IC50 value was documented for this compound, Cc1cccc(-c2nccc(Nc3ccnc(Nc4ccc(N5CCN(C6CCNC6)CC5)cc4)n3)n2)n1 (stereo not drawn) [Compound 429] ?
# output 200 to 1260 nM

# input What IC50 value was documented for this compound, Cc1cccc(-c2nccc(Nc3ccnc(Nc4csc(C(=O)OCCN5CCN6CCCC6C5)c4)n3)n2)n1 (stereo not drawn) [Compound 599] ?
# output 25.1 to 158 nM

# input What IC50 value was documented for this compound, Cc1cccc(-c2nccc(Nc3ccnc(Nc4ccc(NC(=O)C5(O)CNC5)cc4)n3)n2)n1 [Compound 180] ?
# output 25.1 to 158 nM

# input What IC50 value was documented for this compound, Cc1cccc(-c2nccc(Nc3ccnc(Nc4ccc(N5CCNC(C)C5)cc4)n3)n2)n1 (racemic) [Compound 7] ?
# output 25.1 to 158 nM

* * *

measurement target: recombinant human ALK5 (TGF-βR1) protein (Homo sapiens, UniProt P36897)
Sequence (P36897 34-503): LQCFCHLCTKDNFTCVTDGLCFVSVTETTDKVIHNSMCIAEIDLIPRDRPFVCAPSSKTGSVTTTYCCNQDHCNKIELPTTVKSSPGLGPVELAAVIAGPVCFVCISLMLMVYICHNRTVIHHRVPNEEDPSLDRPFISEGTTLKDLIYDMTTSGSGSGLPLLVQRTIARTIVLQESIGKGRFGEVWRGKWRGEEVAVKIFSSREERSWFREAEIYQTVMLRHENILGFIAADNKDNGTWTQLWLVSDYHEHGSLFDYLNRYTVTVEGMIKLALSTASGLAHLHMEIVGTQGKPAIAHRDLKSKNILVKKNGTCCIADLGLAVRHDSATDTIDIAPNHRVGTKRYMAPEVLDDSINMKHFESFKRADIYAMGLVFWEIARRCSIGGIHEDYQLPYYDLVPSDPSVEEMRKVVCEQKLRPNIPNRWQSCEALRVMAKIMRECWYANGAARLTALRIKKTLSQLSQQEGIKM
assay text: Biochemical ALK5 (TGF-βR1) assay to measure pKi (LANCE Ultra ULight kinase assay)
cond: apparent pKi, converted from pIC50 by Cheng-Prusoff
pKi: −log10 of the molar value.
recorded metric: pKi

// below: answered compounds
1) Cc1cccc(-c2nccc(Nc3ccnc(Nc4csc(CN5CCNCC5)c4)n3)n2)n1; ≥ 10.50
2) COC(=O)CC1CN(c2ccc(Nc3nccc(Nc4ccnc(-c5cccc(C)n5)n4)n3)cc2)CCN1 (centres unmarked); 9.50 to 10.40
3) Cc1cccc(-c2nc(Nc3ccnc(Nc4ccc(C(=O)NC5CNC5)cc4)n3)c3cccn3n2)n1; 9.50 to 10.40
4) Cc1cccc(-c2nccc(Nc3ccnc(Nc4ccc(N5C6CCC5CNC6)cc4)n3)n2)n1; 9.50 to 10.40
5) Cc1cccc(-c2nccc(Nc3ccnc(Nc4ccc(CN5CCN(C(C)C)CC5)cc4)n3)n2)n1; 9.50 to 10.40

# input What pKi value was documented for this compound, Cc1cccc(-c2nccc(Nc3ccnc(Nc4ccc(N5CCOCC5)cc4F)n3)n2)n1 ?
# output 7.50 to 8.40

# input What pKi value was documented for this compound, Cc1cccc(-c2nccc(Nc3ccnc(Nc4ccc(CN5CCC(CO)CC5)cc4)n3)n2)n1 ?
# output ≥ 10.50

# input What pKi value was documented for this compound, Cc1cccc(-c2nccc(Nc3ccnc(Nc4ccc(N5CCC(N(C)Cc6ccccn6)CC5)cc4)n3)n2)n1 ?
# output 9.50 to 10.40

* * *

measurement target: recombinant human ALK5 (TGF-βR1) protein (Homo sapiens)
assay text: Biochemical ALK5 (TGF-βR1) assay to measure pKi (LANCE Ultra ULight kinase assay)
cond: apparent pKi, converted from pIC50 by Cheng-Prusoff
pKi: −log10 of the molar value.
Recorded pKi by entry

1) CC(=O)Nc1ccc(Nc2nccc(Nc3ccnc(-c4cccc(C)n4)n3)n2)cc1; 8.50 to 9.40
2) Cc1cccc(-c2nccc(Nc3ccnc(Nc4ccc5c(c4)CC4(CCNC4)C5)n3)n2)n1 (stereo not shown); 9.50 to 10.40
3) Cc1cccc(-c2nccc(Nc3ccnc(Nc4ccc(N5CCC(C(=O)OC6CCNCC6)CC5)cc4)n3)n2)n1; 9.50 to 10.40
4) Cc1cccc(-c2nccc(Nc3ccnc(Nc4csc(C(=O)OCCN5CC[C@@H](N)C5)c4)n3)n2)n1; 9.50 to 10.40
5) CC[C@@H](C)OC(=O)Cc1cc(Nc2nccc(Nc3ccnc(-c4cccc(C)n4)n3)n2)ccc1N1CCNCC1; 9.50 to 10.40

# input What pKi value was documented for this compound, Cc1cccc(-c2nccc(Nc3ccnc(Nc4ccc(C)c(CN5CCSCC5)c4)n3)n2)n1 ?
# output 9.50 to 10.40

# input What pKi value was documented for this compound, COc1cc(Nc2nccc(Nc3ccnc(-c4cccc(C)n4)n3)n2)ccc1CN1C[C@@H](C)N[C@@H](C)C1 ?
# output 9.50 to 10.40
